- Tested on: A2780cis
- assay_remarks: MTT cytotoxicity assay, A2780cis cisplatin-resistant ovarian cancer cells
- Assay type: cell-based, human
- stated_conditions: 48 h, IC50 ± SD
measured_metric: IC50
Answer format reminder: number followed by unit.

In: I would be grateful if you could share the reported IC50 for N.N.[Cl][Pt][Cl] [Cisplatin, reference compound] .
Out: 37 µM

----------
- Test system: MCF-7
- assay_remarks: MTT cytotoxicity assay, MCF-7 breast cancer cells
- Type: cell-based, human
- stated_conditions: 48 h, IC50 ± SD
measured_metric: pIC50
One number for each entry, as −log10 of the molar value.

In: Form field: reported pIC50 of N.N.[Cl][Pt][Cl] [Cisplatin, reference compound]
Out: 4.85
